assay_system: human mGlu4 receptor (Homo sapiens (Human), UniProt Q14833)
Sequence (Q14833 33-912): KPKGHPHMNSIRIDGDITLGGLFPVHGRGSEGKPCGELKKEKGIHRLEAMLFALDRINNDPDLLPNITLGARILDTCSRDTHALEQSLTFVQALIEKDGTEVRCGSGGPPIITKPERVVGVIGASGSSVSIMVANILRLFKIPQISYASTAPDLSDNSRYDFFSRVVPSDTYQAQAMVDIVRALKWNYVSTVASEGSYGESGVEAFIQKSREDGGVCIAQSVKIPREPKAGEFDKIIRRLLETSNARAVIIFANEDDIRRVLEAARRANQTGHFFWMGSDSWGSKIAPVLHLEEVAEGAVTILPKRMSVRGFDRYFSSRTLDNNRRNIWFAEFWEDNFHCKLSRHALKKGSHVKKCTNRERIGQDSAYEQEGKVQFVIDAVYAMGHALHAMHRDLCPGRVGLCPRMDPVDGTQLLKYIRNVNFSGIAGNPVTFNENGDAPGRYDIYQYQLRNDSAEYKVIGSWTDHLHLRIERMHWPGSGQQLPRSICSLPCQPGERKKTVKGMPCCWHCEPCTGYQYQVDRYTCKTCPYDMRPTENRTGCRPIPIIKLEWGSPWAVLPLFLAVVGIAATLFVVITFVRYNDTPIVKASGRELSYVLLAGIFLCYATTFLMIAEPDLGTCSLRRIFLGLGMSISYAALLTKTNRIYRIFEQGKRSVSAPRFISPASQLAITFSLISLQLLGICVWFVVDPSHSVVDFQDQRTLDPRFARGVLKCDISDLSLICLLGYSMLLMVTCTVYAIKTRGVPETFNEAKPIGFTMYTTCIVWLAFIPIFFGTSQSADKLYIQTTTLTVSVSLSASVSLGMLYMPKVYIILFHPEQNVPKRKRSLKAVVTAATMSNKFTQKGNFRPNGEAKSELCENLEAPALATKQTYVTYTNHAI
assay_info: Ca2+ mobilization in vitro assay on recombinant human mGlu4 expressed in HEK293 cells (PAM)
Type: cell-based
run_parameters: HEK293; maximal response in % of maximal stimulatory effect of saturating L-AP4; read-out: Eff. (%)
For each entry below, report its Emax value.
Hi! Could you send only the number? It should be in %, unit omitted.

# return recorded Emax for entry Cc1cc(N2CCN3C(=O)N(c4c(F)cc(C#Cc5ccccc5)cc4F)C(=O)CC3(C)C2=O)nc(C)n1 (racemic)
112

# return recorded Emax for entry CC(C)Oc1ncc(N2CCN3C(=O)N(c4c(F)cc(C#Cc5ccccc5)cc4F)C(=O)C[C@@]3(C)C2=O)cn1
103

# return recorded Emax for entry COc1ccc(N2CCN3C(=O)N(c4c(F)cc(C#Cc5ccccc5)cc4F)C(=O)CC3(C)C2=O)cn1 (racemic)
106

# return recorded Emax for entry CC12CC(=O)N(c3c(F)cc(C#Cc4ccccc4)cc3F)C(=O)N1CCN(Cc1ccccc1Cl)C2=O (racemic)
131

# return recorded Emax for entry Cc1cncc(N2CCN3C(=O)N(c4c(F)cc(C#Cc5ccccc5)cc4F)C(=O)C[C@@]3(C)C2=O)c1
90

# return recorded Emax for entry C[C@@]12CC(=O)N(c3c(F)cc(C#Cc4ccccc4)cc3F)C(=O)N1CCN(c1cnccn1)C2=O
107

# return recorded Emax for entry COCCN1CCN2C(=O)N(c3c(F)cc(C#Cc4ccccc4)cc3F)C(=O)C[C@@]2(C)C1=O
122

# return recorded Emax for entry Cc1ccc(CN2CCN3C(=O)N(c4c(F)cc(C#Cc5ccccc5)cc4F)C(=O)CC3(C)C2=O)cc1 (racemic)
87

# return recorded Emax for entry Cc1cc(N2CCN3C(=O)N(c4c(F)cc(C#Cc5ccccc5)cc4F)C(=O)C[C@@]3(C)C2=O)ncn1
121

# return recorded Emax for entry CCOc1ncc(N2CCN3C(=O)N(c4c(F)cc(C#Cc5ccccc5)cc4F)C(=O)C[C@@]3(C)C2=O)cn1
103

# return recorded Emax for entry Cn1cc(N2CCN3C(=O)N(c4c(F)cc(C#Cc5ccccc5)cc4F)C(=O)CC3(C)C2=O)cn1 (racemic)
129

# return recorded Emax for entry Cc1nccc(N2CCN3C(=O)N(c4c(F)cc(C#Cc5ccccc5)cc4F)C(=O)C[C@@]3(C)C2=O)n1
91

# return recorded Emax for entry C[C@@]12CC(=O)N(c3c(F)cc(C#Cc4ccccc4)cc3F)C(=O)N1CCN(c1cnc(OCc3ccccc3)nc1)C2=O
99

# return recorded Emax for entry C[C@@]12CC(=O)N(c3c(F)cc(C#Cc4ccccc4)cc3F)C(=O)N1CCN(c1cccnc1)C2=O
126
